- Test system: CAL-62 (Thyroid Gland Carcinoma);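 further: after 72 h of two-drug dosing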
- PROCEDURE_TEXT: Bliss excess, mean over the matrix (fraction); higher = more synergy
Outcome: Fulfilled for Bliss excess of at least -0.01; Not fulfilled for anything lower.

{"columns": ["COMPOUND", "ASSAYED_TARGET", "CLASS_ASSIGNMENT"],
 "data": [
  ["NC1(C(=O)N[C@@H](CCO)c2ccc(Cl)cc2)CCN(c2ncnc3[nH]ccc23)CC1 [Capivasertib] + CC(=O)c1c(C)c2cnc(Nc3ccc(N4CCNCC4)cn3)nc2n(C2CCCC2)c1=O [Palbociclib] (first compound max 10 µM, 7x7, partner max 10 µM)", "CAL-62 (Thyroid Gland Carcinoma)", "Fulfilled"],
  ["C[C@@H]1COCCN1c1cc(C2([S@](C)(=N)=O)CC2)nc(-c2ccnc3[nH]ccc23)n1 [AZD6738] + Nc1ccn([C@@H]2O[C@H](CO)[C@@H](O)C2(F)F)c(=O)n1 [Gemcitabine] (first compound max 10 µM, 7x7, partner max 0.3 µM)", "CAL-62 (Thyroid Gland Carcinoma)", "Fulfilled"],
  ["N#Cc1cnc(Nc2cc(NC[C@H]3CNCCO3)c(C(F)(F)F)cn2)cn1 [SRA737] + Nc1ccn([C@@H]2O[C@H](CO)[C@@H](O)C2(F)F)c(=O)n1 [Gemcitabine] (first compound max 10 µM, 7x7, partner max 0.3 µM)", "CAL-62 (Thyroid Gland Carcinoma)", "Fulfilled"],
  ["CC1(C)CCC(CN2CCN(c3ccc(C(=O)NS(=O)(=O)c4ccc(NCC5CCOCC5)c([N+](=O)[O-])c4)c(Oc4cnc5[nH]ccc5c4)c3)CC2)=C(c2ccc(Cl)cc2)C1 [Venetoclax] + C1CN(CCC1(C(=O)N[C@@H](CCO)C2=CC=C(C=C2)Cl)N)C3=NC=NC4=C3C=CN4 [Capivasertib] (first compound max 1 µM, 7x7, partner max 3 µM)", "CAL-62 (Thyroid Gland Carcinoma)", "Not fulfilled"]
]}

I'd appreciate it if you could say whether CC1(C)CCC(CN2CCN(c3ccc(C(=O)NS(=O)(=O)c4ccc(NCC5CCOCC5)c([N+](=O)[O-])c4)c(Oc4cnc5[nH]ccc5c4)c3)CC2)=C(c2ccc(Cl)cc2)C1 [Venetoclax] + C=CCn1c(=O)c2cnc(Nc3ccc(N4CCN(C)CC4)cc3)nc2n1-c1cccc(C(C)(C)O)n1 [AZD1775] (first compound max 1 µM, partner max 1 µM) has Bliss excess at least equal to -0.01.
Fulfilled

I'd appreciate it if you could say whether Cc1c2c(nn1C)CSCc1cc(n(C)n1)CSc1cc(c3ccccc3c1)OCCCc1c(C(=O)O)n(C)c3c-2c(Cl)ccc13 [AZD5991] + Cc1cc2ncnn2cc1Nc1ncc2c(n1)n(C1CCOCC1)c(=O)n2C [AZD7648] (first compound max 1 µM, 7x7, partner max 10 µM) has Bliss excess at least equal to -0.01.
Not fulfilled

I'd appreciate it if you could say whether CN(CCO)CC[C@H](CSc1ccccc1)Nc1ccc(S(=O)(=O)NC(=O)c2ccc(N3CCC([C@@H](O)c4ccccc4-c4ccc(Cl)cc4)CC3)cc2)cc1S(=O)(=O)C(F)(F)F [AZD4320] + CC(=O)O[C@H]1C(=O)[C@@]2(C)[C@H]([C@H](OC(=O)c3ccccc3)[C@]3(O)C[C@H](OC(=O)[C@H](O)[C@@H](NC(=O)c4ccccc4)c4ccccc4)C(C)=C1C3(C)C)[C@]1(OC(C)=O)CO[C@@H]1C[C@@H]2O [Paclitaxel] (first compound max 1 µM, 7x7, partner max 3 µM) has Bliss excess at least equal to -0.01.
Fulfilled

I'd appreciate it if you could say whether CC1(C)CCC(CN2CCN(c3ccc(C(=O)NS(=O)(=O)c4ccc(NCC5CCOCC5)c([N+](=O)[O-])c4)c(Oc4cnc5[nH]ccc5c4)c3)CC2)=C(c2ccc(Cl)cc2)C1 [Venetoclax] + Cn1cnc2c(F)c(Nc3ccc(Br)cc3Cl)c(C(=O)NOCCO)cc21 [Selumetinib] (first compound max 1 µM, 7x7, partner max 3 µM) has Bliss excess at least equal to -0.01.
Not fulfilled

I'd appreciate it if you could say whether N#Cc1cnc(Nc2cc(NC[C@H]3CNCCO3)c(C(F)(F)F)cn2)cn1 [SRA737] + C=CCn1c(=O)c2cnc(Nc3ccc(N4CCN(C)CC4)cc3)nc2n1-c1cccc(C(C)(C)O)n1 [AZD1775] (first compound max 10 µM, partner max 1 µM) has Bliss excess at least equal to -0.01.
Fulfilled

I'd appreciate it if you could say whether COc1nnc2ccc(N3CCC(c4ccc(OCCN5CCN(C)C(=O)[C@H]5C)cc4)CC3)nn12 [AZD5153] + CCN(CCO)CCCOc1ccc2c(Nc3cc(CC(=O)Nc4cccc(F)c4)[nH]n3)ncnc2c1 [AZD2811] (first compound max 1 µM, 7x7, partner max 1 µM) has Bliss excess at least equal to -0.01.
Not fulfilled

I'd appreciate it if you could say whether NC1(C(=O)N[C@@H](CCO)c2ccc(Cl)cc2)CCN(c2ncnc3[nH]ccc23)CC1 [Capivasertib] + Cn1cnc2c(F)c(Nc3ccc(Br)cc3Cl)c(C(=O)NOCCO)cc21 [Selumetinib] (first compound max 10 µM, 7x7, partner max 10 µM) has Bliss excess at least equal to -0.01.
Fulfilled

I'd appreciate it if you could say whether COc1cc2c(cc1OCCCCCOc1cc3c(cc1OC)C(=O)N1C=C(C)C[C@H]1C=N3)N=C[C@@H]1CC(C)=CN1C2=O [SG3199] + O=C(c1cc(Cc2n[nH]c(=O)c3ccccc23)ccc1F)N1CCN(C(=O)C2CC2)CC1 [Olaparib] (first compound max 0.001 µM, 7x7, partner max 10 µM) has Bliss excess at least equal to -0.01.
Not fulfilled

I'd appreciate it if you could say whether CS(=O)(=O)CCNCc1ccc(-c2ccc3ncnc(Nc4ccc(OCc5cccc(F)c5)c(Cl)c4)c3c2)o1 [Lapatinib] + Cn1cnc2c(F)c(Nc3ccc(Br)cc3Cl)c(C(=O)NOCCO)cc21 [Selumetinib] (first compound max 10 µM, 7x7, partner max 10 µM) has Bliss excess at least equal to -0.01.
Not fulfilled
